Assay Comment: suppressors of polyglutamine aggregation in yeast, 75Q-TubH (AID 1616)
Run Parameters: S. cerevisiae 75Q-TubH polyglutamine aggregation suppression; stronger effect = higher value
Give aggregation suppression score for every item shown.
One number for each entry.

Field: example entries. Status: answers known.
[
  {
    "Molecule": "N#Cc1ccc2c(c1)N(CCCN1CCC(O)CC1)c1ccccc1S2",
    "Recorded Value": 1.12
  },
  {
    "Molecule": "CC(C)(C)c1ccc(C(O)CCCN2CCC(C(O)(c3ccccc3)c3ccccc3)CC2)cc1 (stereo unspecified)",
    "Recorded Value": 0.868
  },
  {
    "Molecule": "O=c1cc(-c2ccccc2)oc2c(O)c(O)ccc12",
    "Recorded Value": 0.00444
  },
  {
    "Molecule": "CCC(c1ccc(O)cc1)C(CC)c1ccc(O)cc1 (stereo unspecified)",
    "Recorded Value": -0.0418
  },
  {
    "Molecule": "O=C(O)c1cn(C2CC2)c2cc(N3CCNCC3)c(F)cc2c1=O",
    "Recorded Value": 1.3
  }
]

Next molecule, please.
Suppose we examine the molecule `CN(C)CC/C=C1\c2ccccc2Sc2ccc(Cl)cc21` ; what aggregation suppression score value has been reported?
0.956
